Molecular target: T1, PD1-hFc (human, UniProt Q15116 25-170)
T1 construct: extracellular domain; also called PD1-hFc protein; Human PD-1-Fc (S1420, Y-Biologics)
T1 sequence (Q15116 other isoform, or with tags, fused parts or gaps limits assumed): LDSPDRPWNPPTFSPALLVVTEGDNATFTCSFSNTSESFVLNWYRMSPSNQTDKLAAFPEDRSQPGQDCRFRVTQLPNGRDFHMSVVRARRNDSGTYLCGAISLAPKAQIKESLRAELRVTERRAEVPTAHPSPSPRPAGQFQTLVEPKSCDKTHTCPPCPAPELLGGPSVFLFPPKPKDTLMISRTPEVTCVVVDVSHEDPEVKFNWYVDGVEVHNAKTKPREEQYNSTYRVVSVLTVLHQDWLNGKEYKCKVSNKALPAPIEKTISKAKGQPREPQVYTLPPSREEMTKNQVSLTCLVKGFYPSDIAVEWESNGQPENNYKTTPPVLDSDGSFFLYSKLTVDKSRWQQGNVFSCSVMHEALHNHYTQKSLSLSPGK
Assay: SPR ProteOn XPR36, PD1-hFc immobilised, antibody as analyte
assay endpoint: koff

1. PD1-49A2(A/1H8) (antibody, V domains shown, scFv-phage in the screening ELISA; whole IgG in the other assays; also called 49A2-1H8; PD1 49A2 1H8) VH: QVQLVESGGGVVQPGRSLRLSCAASGFTFKTYAMHWVRQAPGKGLEWVAVISYDGQHKYYADSVKGRFTISRDNSKNTLYLQMNSLRAEDTAVYYCTTTTFDSWGQGTLVTVSS VL: DIVMTQTPLSLPVTPGEPASISCRSSQSLLDRDGGHTYVDWYLQKPGQSPRLLIYTLSHRALGVPDRFSGSGSGTDFTLKISRVEADDVGLYYCMQRIEFPFTFGQGTKVEIK | 2.74e-06 s⁻¹
2. PD1-45D6(A/3H7) (antibody, V domains shown, scFv-phage in the screening ELISA; whole IgG in the other assays; also called 45D6-3H7; PD1 45D6 3H7) VH: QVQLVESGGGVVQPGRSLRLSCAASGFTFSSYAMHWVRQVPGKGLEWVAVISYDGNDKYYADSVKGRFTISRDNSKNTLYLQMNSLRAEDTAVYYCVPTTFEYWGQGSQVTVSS VL: DIVMTQTPLSLPVTPGEPASISCRSSQSLLDSDDGNTYLDWYLQKPGQSPQLLIYTLSHRASGVPGRFSGSGSGTEFNLRISRVEAEDVGIYYCMQRVEFPFTFGQGTKLEIK | 7.78e-06 s⁻¹
3. PD1-45D6(A/3D2) (antibody, V domains shown, scFv-phage in the screening ELISA; whole IgG in the other assays; also called 45D6-3D2; PD1 45D6 3D2) VH: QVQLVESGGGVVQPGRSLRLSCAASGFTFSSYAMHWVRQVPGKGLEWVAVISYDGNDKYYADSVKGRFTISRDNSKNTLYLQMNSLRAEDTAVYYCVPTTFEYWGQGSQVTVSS VL: DIVMTQTPLSLPVTPGEAASISCRSSQSLLDSEDGNTYLDWYLQKPGQSPQLLIYTLSHRASGVPDRFSGSGSGTDFTLKISRVEAEDVGIYYCMQRVEFPFTFGQGTKVEIK | ≤ 1e-07 s⁻¹
